System: S. aureus GC 1079
assayMethodText: MIC, broth microdilution
recordedConditions: Staphylococcus aureus, GC1079, S. aureus GC 1079; Mouse Serum pre-incubation

>  <compound>
CCCCN(CC(=O)Nc1cc(N(C)C)c2c(c1O)C(=O)C1=C(O)[C@]3(O)C(=O)C(C(N)=O)=C(O)[C@@H](N(C)C)C3CC1C2)C(=O)OCOC(=O)C(C)C (stereo partly drawn)

>  <MIC>
2 µg/mL

$$$$
>  <compound>
CCCN(CC(=O)Nc1cc(N(C)C)c2c(c1O)C(=O)C1=C(O)[C@]3(O)C(=O)C(C(N)=O)=C(O)[C@@H](N(C)C)[C@@H]3C[C@@H]1C2)C(=O)OCOC(=O)Cc1ccccc1

>  <MIC>
2 µg/mL

$$$$
>  <compound>
CCCN(CC(=O)Nc1cc(N(C)C)c2c(c1O)C(=O)C1=C(O)[C@]3(O)C(=O)C(C(N)=O)=C(O)[C@@H](N(C)C)[C@@H]3C[C@@H]1C2)C(=O)OCOC(=O)c1ccc(OC)cc1

>  <MIC>
2 µg/mL

$$$$
>  <compound>
CCCN(CC(=O)Nc1cc(N(C)C)c2c(c1O)C(=O)C1=C(O)[C@]3(O)C(=O)C(C(N)=O)=C(O)[C@@H](N(C)C)[C@@H]3C[C@@H]1C2)C(=O)OCOC(=O)C(C)(C)C

>  <MIC>
2 µg/mL

$$$$
>  <compound>
CCCN(CC(=O)Nc1cc(N(C)C)c2c(c1O)C(=O)C1=C(O)[C@]3(O)C(=O)C(C(N)=O)=C(O)[C@@H](N(C)C)[C@@H]3C[C@@H]1C2)C(=O)OCc1ccccc1

>  <MIC>
1 µg/mL

$$$$
>  <compound>
CCCN(CC(=O)Nc1cc(N(C)C)c2c(c1O)C(=O)C1=C(O)[C@]3(O)C(=O)C(C(N)=O)=C(O)[C@@H](N(C)C)[C@@H]3C[C@@H]1C2)C(=O)OCC

>  <MIC>
2 µg/mL

$$$$
